Recorded pEC50 by entry
Target: TLR8 (Homo sapiens)
Construct: Human peripheral blood mononuclear cells (PBMCs) consist of lymphocytes, monocytes and dendritic cells that express TLR7, TLR8 and TLR9; endogenous in cells
Sequence (Q9NR97 27-1041): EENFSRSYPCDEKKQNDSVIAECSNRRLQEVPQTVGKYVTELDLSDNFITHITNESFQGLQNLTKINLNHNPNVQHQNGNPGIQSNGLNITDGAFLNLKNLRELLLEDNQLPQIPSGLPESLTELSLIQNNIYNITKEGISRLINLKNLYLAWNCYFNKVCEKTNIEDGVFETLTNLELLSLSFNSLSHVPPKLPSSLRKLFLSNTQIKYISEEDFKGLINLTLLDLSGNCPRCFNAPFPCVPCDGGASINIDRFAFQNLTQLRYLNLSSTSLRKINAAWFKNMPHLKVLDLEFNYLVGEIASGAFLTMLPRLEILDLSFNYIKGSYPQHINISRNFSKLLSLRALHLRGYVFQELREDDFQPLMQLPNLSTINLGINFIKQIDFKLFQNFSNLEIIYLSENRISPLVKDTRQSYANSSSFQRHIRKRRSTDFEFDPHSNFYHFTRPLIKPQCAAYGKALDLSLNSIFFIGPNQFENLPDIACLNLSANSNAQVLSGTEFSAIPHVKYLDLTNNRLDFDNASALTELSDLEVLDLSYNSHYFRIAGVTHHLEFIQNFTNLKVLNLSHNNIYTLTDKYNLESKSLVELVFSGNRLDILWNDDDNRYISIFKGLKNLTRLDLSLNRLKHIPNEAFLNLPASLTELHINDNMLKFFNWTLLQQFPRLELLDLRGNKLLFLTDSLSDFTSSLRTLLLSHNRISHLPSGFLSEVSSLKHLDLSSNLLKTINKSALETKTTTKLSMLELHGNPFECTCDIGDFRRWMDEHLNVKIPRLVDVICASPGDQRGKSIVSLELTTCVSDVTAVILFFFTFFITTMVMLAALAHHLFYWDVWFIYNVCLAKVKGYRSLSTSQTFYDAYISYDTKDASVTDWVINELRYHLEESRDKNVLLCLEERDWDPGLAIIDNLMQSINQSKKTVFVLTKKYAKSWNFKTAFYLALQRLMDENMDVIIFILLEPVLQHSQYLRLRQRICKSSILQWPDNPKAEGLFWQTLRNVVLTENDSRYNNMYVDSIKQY
Test: TLR8 human PBMC cell-based assay (antagonist, Compound A stimulated cytokine release)
Settings: human PBMCs; TLR8 agonist Compound A 800 nM, 6 hours; cytokines (TNFa and IL 12p40) in supernatant; read-out: TLR-8 EC50
pEC50: −log10 of the molar value.
endpoint: pEC50

>>> df
                                   compound  endpoint  result
0  Cc1cc(-c2[nH]c3cc(C(=O)N(C)[C@H]4CNC[C@@H](C(F)(F)F)C4)sc3c2C(C)C)cn2ncnc12 [Example 275]     pEC50    7.45
1  Cc1cc(-c2[nH]c3cc(C4CCNCC4)sc3c2C(C)C)cn2ncnc12 [Example 154]     pEC50    8.44
2  Cc1cc(-c2[nH]c3cc(C4CCNC4)sc3c2C(C)C)cn2ncnc12 (stereo not drawn) [Example 161]     pEC50    7.91

----------
Molecular target: TLR8 (Homo sapiens, UniProt Q9NR97)
Construct: Human peripheral blood mononuclear cells (PBMCs) consist of lymphocytes, monocytes and dendritic cells that express TLR7, TLR8 and TLR9; endogenous in cells
Sequence (Q9NR97 27-1041): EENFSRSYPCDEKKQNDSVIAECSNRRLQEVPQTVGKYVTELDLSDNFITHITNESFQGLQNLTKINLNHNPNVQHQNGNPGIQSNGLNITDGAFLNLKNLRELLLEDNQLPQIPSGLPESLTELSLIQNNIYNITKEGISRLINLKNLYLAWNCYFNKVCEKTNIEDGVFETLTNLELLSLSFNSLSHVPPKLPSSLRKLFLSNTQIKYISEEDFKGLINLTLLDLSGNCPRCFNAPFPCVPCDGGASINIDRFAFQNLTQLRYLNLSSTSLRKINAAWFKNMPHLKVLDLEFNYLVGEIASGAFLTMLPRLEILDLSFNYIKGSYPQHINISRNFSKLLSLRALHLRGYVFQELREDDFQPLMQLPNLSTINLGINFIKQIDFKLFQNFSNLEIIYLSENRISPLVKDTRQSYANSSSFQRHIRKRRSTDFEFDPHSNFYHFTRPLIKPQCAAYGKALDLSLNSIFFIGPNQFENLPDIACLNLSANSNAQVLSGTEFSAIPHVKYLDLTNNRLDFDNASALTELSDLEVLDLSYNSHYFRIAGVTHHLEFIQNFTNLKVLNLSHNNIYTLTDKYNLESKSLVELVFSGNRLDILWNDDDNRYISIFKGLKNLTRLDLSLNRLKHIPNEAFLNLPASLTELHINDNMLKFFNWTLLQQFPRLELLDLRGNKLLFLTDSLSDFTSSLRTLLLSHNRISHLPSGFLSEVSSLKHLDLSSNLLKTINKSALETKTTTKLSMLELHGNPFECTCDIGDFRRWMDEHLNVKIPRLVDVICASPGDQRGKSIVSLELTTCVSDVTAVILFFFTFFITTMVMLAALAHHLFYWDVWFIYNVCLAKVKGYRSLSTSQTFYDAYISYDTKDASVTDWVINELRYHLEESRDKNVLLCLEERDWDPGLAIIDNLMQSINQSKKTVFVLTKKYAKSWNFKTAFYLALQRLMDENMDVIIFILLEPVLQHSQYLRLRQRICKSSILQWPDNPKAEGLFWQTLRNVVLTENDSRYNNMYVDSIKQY
Assay: TLR8 human PBMC cell-based assay (antagonist, Compound A stimulated cytokine release)
Details: human PBMCs; TLR8 agonist Compound A 800 nM, 6 hours; cytokines (TNFa and IL 12p40) in supernatant; read-out: TLR-8 EC50
pEC50: −log10 of the molar value.
endpoint: pEC50

In [3]: df
Out[3]:
                                   compound  endpoint  result
0  Cc1cc(-c2[nH]c3cc(-c4ccc(N5CCNCC5)nc4)sc3c2C(C)C)cc(C)n1 [Example 51]     pEC50    7.21
1  Cc1cc(-c2[nH]c3cc(C(=O)N(C)CCN4CCCC4)sc3c2C(C)C)cn2ncnc12 [Example 99]     pEC50    7.94
2  Cc1cc(-c2[nH]c3cc(C4CC5CCC(C4)N5)sc3c2C(C)C)cn2ncnc12 (stereo not drawn) [Example 156]     pEC50    8.06

----------
target: TLR7 (Homo sapiens); construct: Human peripheral blood mononuclear cells (PBMCs) consist of lymphocytes, monocytes and dendritic cells that express TLR7, TLR8 and TLR9; endogenous in cells; assay: TLR7 human PBMC cell-based assay (antagonist, GS-986 stimulated cytokine release); conditions: human PBMCs; TLR7 agonist GS-986 400 nM, 6 hours; cytokines (IL-6 and IFNα) in supernatant; read-out: TLR-7 EC50
Sequence (Q9NYK1 27-1049): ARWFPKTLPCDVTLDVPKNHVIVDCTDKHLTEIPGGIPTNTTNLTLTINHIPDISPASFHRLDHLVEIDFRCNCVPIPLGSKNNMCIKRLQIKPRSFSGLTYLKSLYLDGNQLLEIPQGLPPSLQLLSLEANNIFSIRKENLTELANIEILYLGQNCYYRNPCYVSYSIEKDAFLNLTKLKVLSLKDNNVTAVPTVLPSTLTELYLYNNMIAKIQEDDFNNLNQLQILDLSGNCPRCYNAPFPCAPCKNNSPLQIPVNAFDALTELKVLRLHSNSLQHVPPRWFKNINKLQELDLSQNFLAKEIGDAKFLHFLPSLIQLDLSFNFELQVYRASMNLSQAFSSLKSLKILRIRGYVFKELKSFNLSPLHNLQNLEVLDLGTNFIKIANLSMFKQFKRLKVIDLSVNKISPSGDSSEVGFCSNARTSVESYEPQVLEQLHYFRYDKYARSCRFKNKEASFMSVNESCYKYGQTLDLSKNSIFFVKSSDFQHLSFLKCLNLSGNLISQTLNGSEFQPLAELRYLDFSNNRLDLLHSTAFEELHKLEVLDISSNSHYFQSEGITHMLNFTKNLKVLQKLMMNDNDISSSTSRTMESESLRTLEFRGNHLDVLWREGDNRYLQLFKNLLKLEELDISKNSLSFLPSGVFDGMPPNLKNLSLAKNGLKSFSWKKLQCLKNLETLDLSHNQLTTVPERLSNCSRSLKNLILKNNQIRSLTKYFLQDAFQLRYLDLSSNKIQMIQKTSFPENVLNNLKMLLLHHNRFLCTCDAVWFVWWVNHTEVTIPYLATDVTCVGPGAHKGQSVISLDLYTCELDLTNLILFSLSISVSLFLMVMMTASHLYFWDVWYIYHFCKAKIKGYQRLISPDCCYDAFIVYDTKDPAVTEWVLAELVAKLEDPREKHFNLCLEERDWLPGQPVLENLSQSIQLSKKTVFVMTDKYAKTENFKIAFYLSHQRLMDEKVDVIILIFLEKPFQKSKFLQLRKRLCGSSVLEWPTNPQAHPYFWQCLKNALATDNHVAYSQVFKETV
Recorded EC50 by entry
endpoint: EC50 (nM)

                                   compound  endpoint  result
0  Cc1cc(-c2[nH]c3cc(C(=O)N4CCC5(CCN(CC(N)=O)CC5)C4)sc3c2C(C)C)cn2ncnc12      EC50     6.5
1  Cc1cc(-c2[nH]c3cc(C(=O)N4CCC[C@H]4CN4CCCC4)sc3c2C(C)C)cn2ncnc12      EC50    12.9
2  Cc1cc(-c2[nH]c3cc(C4CCNC4)sc3c2C(C)C)cn2ncnc12 (stereo not drawn)      EC50     9.6

----------
Target: TLR8 (Homo sapiens)
Construct: Human peripheral blood mononuclear cells (PBMCs) consist of lymphocytes, monocytes and dendritic cells that express TLR7, TLR8 and TLR9; endogenous in cells
Sequence (Q9NR97 27-1041): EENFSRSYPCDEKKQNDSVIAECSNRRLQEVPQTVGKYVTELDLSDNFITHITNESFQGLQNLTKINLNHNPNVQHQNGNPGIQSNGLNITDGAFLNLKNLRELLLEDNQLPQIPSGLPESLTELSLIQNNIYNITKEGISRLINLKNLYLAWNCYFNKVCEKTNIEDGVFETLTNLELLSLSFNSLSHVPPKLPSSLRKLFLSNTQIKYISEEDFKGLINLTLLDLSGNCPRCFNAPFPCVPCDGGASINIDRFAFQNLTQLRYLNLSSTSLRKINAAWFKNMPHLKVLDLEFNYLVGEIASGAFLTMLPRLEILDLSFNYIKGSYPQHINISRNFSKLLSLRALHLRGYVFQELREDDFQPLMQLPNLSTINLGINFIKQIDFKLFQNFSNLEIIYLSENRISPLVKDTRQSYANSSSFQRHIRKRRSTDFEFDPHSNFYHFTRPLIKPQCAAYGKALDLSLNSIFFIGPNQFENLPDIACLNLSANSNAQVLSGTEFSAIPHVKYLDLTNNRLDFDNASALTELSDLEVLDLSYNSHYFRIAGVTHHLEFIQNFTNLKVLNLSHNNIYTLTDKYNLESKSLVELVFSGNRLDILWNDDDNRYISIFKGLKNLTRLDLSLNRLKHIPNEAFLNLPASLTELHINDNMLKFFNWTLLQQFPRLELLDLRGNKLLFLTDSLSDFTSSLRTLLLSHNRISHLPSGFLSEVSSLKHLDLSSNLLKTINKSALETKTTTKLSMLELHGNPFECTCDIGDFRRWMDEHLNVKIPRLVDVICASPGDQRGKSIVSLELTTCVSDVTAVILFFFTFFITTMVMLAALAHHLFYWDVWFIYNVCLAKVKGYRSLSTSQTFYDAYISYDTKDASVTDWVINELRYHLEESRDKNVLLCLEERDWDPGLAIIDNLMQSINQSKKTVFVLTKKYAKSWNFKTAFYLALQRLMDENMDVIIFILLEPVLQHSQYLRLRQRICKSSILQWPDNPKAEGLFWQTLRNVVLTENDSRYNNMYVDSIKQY
Experiment: TLR8 human PBMC cell-based assay (antagonist, Compound A stimulated cytokine release)
Conditions: human PBMCs; TLR8 agonist Compound A 800 nM, 6 hours; cytokines (TNFa and IL 12p40) in supernatant; read-out: TLR-8 EC50
pEC50: −log10 of the molar value.
Please map values of pEC50 to classes as shown: class A = under 8, class B = from 8 up to 9, class C = 9 and over

                                   compound  assignedlabel
0  Cc1cc(-c2[nH]c3cc(C(=O)N4C[C@@H](C)N[C@H](C)C4)sc3c2C(C)C)cn2ncnc12 [Example 127]        class C
1  Cc1nc2c(C)cc(-c3[nH]c4cc(C5CCN(CC(N)=O)CC5)sc4c3C(C)C)cn2n1 [Example 283]        class B
2  CCc1c(-c2cc(C)c3ncnn3c2)[nH]c2cc(-c3nc4ccc(N5CCN(CC(N)=O)CC5)cc4[nH]3)sc12 [Example 169]        class A
3  Cc1cc(-c2[nH]c3cc(C4CCN(CC(N)=O)CC4(C)C)sc3c2C(C)C)cn2ncnc12 (stereo not shown) [Example 298]        class A
4  Cc1c(-c2[nH]c3cc(C(=O)N(C)C4CCN(CCO)CC4)sc3c2C(C)C)cn2ncnc2c1C [Example 192]        class C
5  Cc1cc(-c2[nH]c3cc(C(=O)N[C@H]4CCNC4)sc3c2C(C)C)cc(C)n1 [Example 6]        class A
6  Cc1cc(-c2[nH]c3cc(C(=O)N4CCC5(CCNCC5)C4)sc3c2C(C)C)cn2ncnc12 [Example 120]        class A
7  CCc1c(-c2cc(C)c3ncnn3c2)[nH]c2cc(-c3nc(N4CCNCC4)no3)sc12 [Example 47]        class B
8  Cc1cc(-c2[nH]c3cc(C(=O)N4CCC[C@H]5NCC[C@H]54)sc3c2C(C)C)cn2ncnc12 [Example 108]        class B
9  Cc1c(-c2[nH]c3cc(-c4cn(C5CCNCC5)nn4)sc3c2C(C)C)cn2ncnc2c1C [Example 230]        class B
